Tested on: COLO 205
Assay explanation: NCI tumour cell line growth inhibition, 48 h
Calls of active or inactive are those of the source. Cut-off read from the data, not from the text of the source: active = GI50 up to about 1.1 µM and inactive = higher.
Observation type: GI50

[[record]]
molecule = "c1ccc(CCN2CCOCC2)nc1"
observation_type = "GI50"
result = "> 100 µM (inactive)"

[[record]]
molecule = "O=C(O)CCSC(=O)Nc1ccc([N+](=O)[O-])cc1"
observation_type = "GI50"
result = "> 100 µM (inactive)"

[[record]]
molecule = "Cc1nc(N)nc(S)c1CCC(=O)O"
observation_type = "GI50"
result = "> 100 µM (inactive)"

[[record]]
molecule = "CN(C)C(=O)C(F)(F)C(c1ccc(F)cc1)C1C(=O)N(C)C(=O)N(C)C1=O (stereo unspecified)"
observation_type = "GI50"
result = "> 100 µM (inactive)"

[[record]]
molecule = "CCN(CC)CCNc1ccc2ncn3c4c(OC)cccc4c(=O)c1c23"
observation_type = "GI50"
result = "1.91 µM (inactive)"

[[record]]
molecule = "COC(=O)C(=O)C(C(=O)C(=O)Nc1ccc([N+](=O)[O-])cc1)c1nc2ccccc2nc1O (stereo unspecified)"
observation_type = "GI50"
result = "> 100 µM (inactive)"


The reported GI50 value, COLO 205, for CNc1ncnc2c1nc(NC1CCCC1)n2C1OC(CO)C(O)C1O (stereo unspecified) reads > 100 µM (inactive)

Measured on COLO 205, `COc1ccccc1N/C(=C\C(=O)C(=O)NC12CC3CC(CC(C3)C1)C2)c1ccccc1` has a documented GI50 of > 10 µM (inactive)

Result for `COc1ccc2c(c1)c1c(n2CCN(C)C)-c2cccc(OC)c2CC1` , tested on COLO 205, GI50: 6.62 µM (inactive)

# value of GI50, COLO 205, item `C=C(c1ccccc1)c1cc2c(=O)[nH]ccc2n1C` = 15.9 µM (inactive)

Let me check: `O=C(Nc1ccc2nc(-c3ccccc3)cn2c1)Oc1ccccc1` , system COLO 205, measured GI50 is 48.6 µM (inactive)

###

Test system: M14
Assay explanation: NCI tumour cell line growth inhibition, 48 h
The source made the active and inactive calls. Rule as the data show it: active = GI50 up to about 1.1 µM and inactive = higher. Residues, ends and D or L forms follow the SMILES beside them. *: point of attachment. Bn = c1ccc(C*)cc1
// one of class 1 = active, class 0 = inactive, no free text

Illustrative cases are given below, each with its answer.
[[record]]
compound = "CC(C)(C)OC(=O)NCC(=O)NC1c2ccsc2/C(=N/O)[C@H]1O (stereo not given in full)"
group = "class 0"

[[record]]
compound = "CCOC(=O)C1=C(C)N(Cc2ccccc2)C2(O)C=CC(O)=C3C(=O)c4ccccc4C(=O)C312 (stereo not given)"
group = "class 0"

[[record]]
compound = "Cc1ccc(NC(=O)/C(Cl)=C(/Cl)C(=O)O)cc1"
group = "class 0"

[[record]]
compound = "CCC[C@H](C)C[C@H](C)C[C@H](C)/C=C(\\C)[C@@H](O)[C@@H](C)C(=O)CC"
group = "class 0"

[[record]]
compound = "COC(=O)C(CC(C)C)NC(=O)C(N)Cc1ccc(OCc2ccccc2)cc1 (stereo not given) (H-Tyr(Bn)-Leu-OMe; configuration not given here)"
group = "class 0"

[[record]]
compound = "CC1=CC2=C(C#N)C(=O)OC2(C)C(c2ccccc2)C1 (stereo not given)"
group = "class 0"


# input for lookup
Call for entry `CCOC(=O)C(C)(C)Oc1ccc2c(-c3ccccc3)cc(=O)oc2c1` :
class 0

###

Test system: OVCAR-4
Assay explanation: NCI tumour cell line growth inhibition, 48 h
The source made the active and inactive calls. Cut-off read from the data, not from the text of the source: active = GI50 up to about 1.1 µM and inactive = higher.
Hi there, use one of these labels in your reply, thanks! yes (active), no (inactive)

// known answers, use as guide
[[record]]
compound = "N#CC1=C(N)N(c2ccccc2)C(c2ccco2)C1(C#N)C#N (stereo not drawn)"
group = "no"

[[record]]
compound = "COc1cc(C#CC(=O)OC/C=C/c2ccc3c(c2)OCO3)cc(OC)c1OC"
group = "no"


What did this assay record as the result for COc1c(OC2OC(CO)C(O)C(O)C2O)cc2c(c1OC)-c1ccc(OC)c(=O)cc1C(NC(C)=O)CC2 (stereo not drawn) ?
no

###

Tested on: HCC 2998
Assay explanation: NCI tumour cell line growth inhibition, 48 h
Activity calls are given as the source filed them. Cut-off read from the data, not from the text of the source: active = GI50 up to about 1.1 µM and inactive = higher.
Observation type: GI50

Study these solved cases before continuing.
[[record]]
compound = "Cc1ccc(S(=O)(=O)[C@@H](Cl)[C@H]2N=C(Cl)NN=C2c2ccccc2)cc1"
result = "33.8 µM (inactive)"

[[record]]
compound = "C=C1CC(CN2CCC(=O)NC2=O)(c2ccccc2)OC1=O (configuration not stated)"
result = "15 µM (inactive)"

[[record]]
compound = "c1ccc(C2SCC3=Nc4ccccc4CN32)cc1 (configuration not stated)"
result = "61.7 µM (inactive)"


Entry `CC(=O)ON1C(=O)c2cccc3cccc(c23)C1=O` , GI50 reported as 31.6 µM (inactive)

response.value for `O=C(Nc1ccc2nc(-c3ccccc3)cn2c1)Oc1ccccc1` (field: GI50) = 25.2 µM (inactive)

Lab note: measured GI50 of `COC(=O)c1ccc(/C=C2\Oc3ccccc3C2=O)cc1` was > 100 µM (inactive)

Entry under test: `CC(=O)N1CCC2(C=Nc3ccccc32)CC1` . Its GI50 was > 100 µM (inactive)

###

System: NCI-H226
Assay explanation: NCI tumour cell line growth inhibition, 48 h
Calls of active or inactive are those of the source. No stated cut-off is given here; in the data, active = GI50 up to about 1.1 µM and inactive = higher.
Bench note: report the call from 1 = active, 0 = inactive

[[record]]
compound = "c1cncc(CSc2nc3ccccc3nc2-c2cccs2)c1"
test_system = "NCI-H226"
group = 0

[[record]]
compound = "CCCCCCCCCCCCCCCCCC(=O)Nc1ccn(C2CCC(COP(=O)(O)O)O2)c(=O)n1 (stereo not given)"
test_system = "NCI-H226"
group = 0

[[record]]
compound = "O=C(NO)NCCCl"
test_system = "NCI-H226"
group = 0

[[record]]
compound = "O=C(NNc1cn[nH]c(=O)c1Cl)/C(=C/c1ccc2c(c1)OCO2)NC(=O)c1ccccc1"
test_system = "NCI-H226"
group = 0


Assay outcome for `Clc1ccc(Nc2nnc(CNc3ccc(-c4nnc(Nc5ccc(Cl)cc5)s4)cc3)s2)cc1` : what was it?
0

Call for entry `COc1cccc2c1C(=O)c1ccc3cc(CO)cc(O)c3c1C2=O` :
1

I would be grateful if you could indicate the recorded call for `N#Cc1cccc(Nc2ccccc2SSc2ccccc2Nc2cccc(C#N)c2)c1` .
0

Status in this test for `COc1ccc(-c2oc(/C=N/c3ccccc3)c([N+](=O)[O-])c2-c2ccc(OC)c(OC)c2)cc1OC` ?
0

Short answer needed: outcome of this test for `CN(C)CCNc1ccc([N+](=O)[O-])c2nc3ccccc3c(N)c12` ?
0

What outcome does the record of this test show for CCOC(=O)C1=C(C)NC2=C(C(=O)N(c3ccccc3)C2c2ccccc2)C1c1ccccc1 (stereo not given) ?
0

###

Tested on: TK-10
Assay explanation: NCI tumour cell line growth inhibition, 48 h
Active and inactive are the calls of the source. Rule as the data show it: active = GI50 up to about 1.1 µM and inactive = higher.
Observation type: GI50

Observe how each entry below is paired with its result.
[[record]]
molecule = "CC(C)(C)OC(=O)NCC(=O)NC1c2ccsc2/C(=N/O)[C@H]1O (stereo partly specified)"
test_system = "TK-10"
result = "> 100 µM (inactive)"

[[record]]
molecule = "N#Cc1ccc(Nc2cnc3ccc(N)cc3n2)cc1"
test_system = "TK-10"
result = "> 100 µM (inactive)"

[[record]]
molecule = "N#Cc1ccc2oc3ccc(C#N)cc3c(=O)c2c1"
test_system = "TK-10"
result = "24.3 µM (inactive)"

[[record]]
molecule = "COc1ccc2c(c1)c1c(n2CCN(C)C)-c2cccc(OC)c2CC1"
test_system = "TK-10"
result = "19.2 µM (inactive)"

[[record]]
molecule = "N#CC(C(=O)C(=O)Nc1ccccc1)c1ccccc1 (stereo unspecified)"
test_system = "TK-10"
result = "> 100 µM (inactive)"


Now take the following molecule into account.
The reported value for `CCOC(=O)C(C)(C)Oc1ccc2c(-c3ccc(Cl)cc3)c(-c3ccc(Cl)cc3)c(=O)oc2c1` in terms of GI50 is > 100 µM (inactive)

###

Test system: NCI-H226
Assay explanation: NCI tumour cell line growth inhibition, 48 h
Active and inactive are the calls of the source. Rule as the data show it: active = GI50 up to about 1.1 µM and inactive = higher.
Log the outcome using a class from active, inactive

[[record]]
compound = "O=C1OC(c2ccc(O)c(F)c2)(c2ccc(O)c(F)c2)c2cccc3cccc1c23"
group = "inactive"

[[record]]
compound = "Cc1cc(Cl)ccc1OCC(=O)Nc1nc(N)nc(N)n1"
group = "inactive"

[[record]]
compound = "CN(C)C(=O)C(F)(F)C(c1ccc(F)cc1)C1C(=O)N(C)C(=O)N(C)C1=O (stereo unspecified)"
group = "inactive"

[[record]]
compound = "CC(C)C[C@H](NC(=O)[C@@H](Cc1cccc2ccccc12)NC(=O)N1CCOCC1)B(O)O"
group = "inactive"

[[record]]
compound = "CCOC(=O)C(C)(C)Oc1ccc2c(-c3ccc(Cl)cc3)c(-c3ccc(Cl)cc3)c(=O)oc2c1"
group = "inactive"


Tell me the assay call for CN(C)C1(N(C)C)Oc2c(c(=O)n(C)c(=O)n2C)C(c2ccc(F)cc2)C1(F)F (stereo unspecified) please.
inactive

Dear colleague, could you share the recorded outcome for `CC1(C)O[C@@H](CP(c2cccc3ccccc23)c2cccc3ccccc23)[C@H](CP(c2cccc3ccccc23)c2cccc3ccccc23)O1` when you have a moment?
inactive

Please let me know the test result on file for N#CC1=C(N)N(c2ccccc2)C(c2ccco2)C1(C#N)C#N (stereo unspecified) .
inactive

Identify the outcome logged in this assay for the compound shown: CC1CCC2(NC1)OC1CC3[C@@H]4CC=C5C=CCC[C@]5(C)C4CC[C@]3(C)C1C2C (stereo partly specified)
inactive

What was the test verdict on `CCCCCCOc1ccc(NC2=C(Cl)C(=O)c3cccnc3C2=O)cc1` ?
inactive

Which outcome was entered for the compound `O=C(CSCC(=O)N/N=C/c1cccc(OCc2ccccc2)c1)N/N=C/c1cccc(OCc2ccccc2)c1` in this test?
inactive

Outcome? `CN1CCN(CCn2c3c4ccccc4ccc3c3oc(=O)c4ccccc4c32)CC1`
inactive

What was the test verdict on CC1=CC2=C(C#N)C(=O)OC2(C)C(c2ccccc2)C1 (stereo unspecified) ?
inactive
